Experiment: Stability in human liver microsomes assessed as parent compound remaining at 2 uM measured immediately in presence of cofactor
Type: ADME, Microsome
Conditions: read-out: Stabilty
RECORDED METRIC: remaining at 0 min, 2 µM (%)
Please reply with the bare figure in % and do not write the unit itself.

Suppose we examine the compound COc1cc2c(-c3cc(OC)c(OC)c(OC)c3)nccc2cc1O ; what remaining at 0 min, 2 µM value has been reported?
100

* * *

System: liver microsomes (Mus musculus)
Assay: Stability in mouse liver microsomes assessed as parent compound remaining at 2 uM measured after 40 mins in presence of cofactor
Settings: read-out: Stabilty
RECORDED METRIC: remaining at 40 min, 2 µM (%)
Give the quantity in %, number only.

Which measured remaining at 40 min, 2 µM value corresponds to COc1cc2c(-c3cc(OC)c(OC)c(OC)c3)nccc2cc1O ?
67
